- assay.remarks: Clinical plasma PK, study RMC-5552-001
- Type: in vivo, human
- condition.details: 8 mg, C4D1 (EOI)

molecule.smiles	Cmax
CO[C@H]1C[C@@H]2CC[C@@H](C)[C@@](O)(O2)C(=O)C(=O)N2CCCC[C@H]2C(=O)O[C@H]([C@H](C)C[C@@H]2CC[C@@H](OC(=O)NCCOCCOCCOCCOCCOCCOCCOCCOCCC(=O)N3CCc4cc(Cn5nc(-c6ccc7oc(N)nc7c6)c6c(N)ncnc65)ccc4C3)[C@H](OC)C2)C[C@@H](O)[C@H](C)/C=C(\C)[C@@H](O)[C@@H](OC)C(=O)[C@H](C)C[C@H](C)/C=C/C=C/C=C/1C	0.208 µM
